Field: half-life. Provide a value for each of the compounds that follow.
# experimental.protocol: in vitro
# condition.context: human, blood

Q. Looking for the measured half-life of COc1cc(C(C)C)c2c(c1)S(=O)(=O)N(COc1nc3ccccn3c(=O)c1Cl)C2=O , can you help?
A. 160 min

Q. Consider the compound shown here: COc1cc(C(C)C)c2c(c1)S(=O)(=O)N(COc1cc(C)oc(=O)c1)C2=O What is its recorded half-life?
A. < 15 min

Q. What does the data say about its half-life? Entry: O=C1c2ccccc2S(=O)(=O)N1COc1nc2ccccn2c(=O)c1Cl
A. < 15 min

Q. Returns the measured half-life for the input compound. Input: COc1cc(C(C)C)c2c(c1)S(=O)(=O)N(COC1=CC(=O)OC1C)C2=O (centres undefined)
A. < 15 min
